assay: Particle size and polydispersity index of nanoparticle compositions (Zetasizer Nano ZS); type: physicochemical; settings: Table 1b
Criterion: PDI meeting or surpassing 0.2. Met: 1. Not met: -1.

Please review the entries below; each comes with its answer.
MOLECULE	CLASS
CCCCCCCCCN(CCCC(=O)OCCCCC)CCCC1CCN(C(=O)CCN(CCCCCCCCC)CCN(CCCCCCCCC)CCCCCCCCC)CC1 [Compound 84]	-1
CCCCCCCCCN(CCCC(=O)OCCCCC)CCC1CCN(C(=O)CN(CCCCCCCCC)CCN(CCCCCCCCC)CCCCCCCCC)CC1 [Compound 83]	1
CCCCCCCCCN(CCCCCCCCC)CCN(CCCCCCCCC)CC(=O)N1CCN(C(=O)CN(CCCCCCCCC)CCCCCC(=O)OCCC)CC1 [Compound 54]	1

Please look at the following molecule next.
Query string: Given the entry CCCCCCCCCN(CCCCCCC(=O)OCC)CCC1CCN(C(=O)CN(CCCCCCCCC)CCN(CCCCCCCCC)CCCCCCCCC)CC1 [Compound 58] , answer whether its PDI meets or surpasses 0.2.
Result string: 1
